# Tested on: Mia Paca-2
# Assay Procedure: MTT cell proliferation assay
# Assay type: cell-based, human
# Assay Context: Mia Paca-2, 3 days; read-out: Cytotoxic effect (MTT) IC50
Value Type: IC50 (µM)

Molecule: CS(=O)(=O)[O-].Cc1c2cc[n+](CCN3CCCCC3)cc2c(C)c2c1[nH]c1ccc(O)cc12
Recorded Result: 7.6

---

# Tested on: B16F10
# Assay Procedure: MTT cell proliferation assay
# Assay type: cell-based, murine
# Assay Context: Mus musculus, B16-F10; B16F10 (Example 11); read-out: IC50 (MTT Test-72 h)
pIC50: −log10 of the molar value.

Compound: Cc1c2cc[n+](CCN3CCCCC3)cc2c(C)c2c1[nH]c1ccc(O)cc12 [Bimesylate]
pIC50: 5.55
